System: human breast cancer MDA-MB-231 cell line
Assay: Resazurin cytotoxicity assay, MDA-MB-231
Format: cell-based
Conditions: Homo sapiens, MDA-MB-231, 24 h, resazurin assay, 24 h; read-out: IC50±SD MDA-MB-231
Property label: pIC50
The value called pIC50 is obtained by taking minus log10 of the concentration in mol/L.

Suppose we examine the compound CN(CC(=O)N(Cc1ccc(C(C)(C)C)cc1)c1ccc(C(=O)O)c(O)c1)S(=O)(=O)c1c(F)c(F)c(F)c(F)c1F [Compound 6] ; what pIC50 value has been reported?
4.58

Suppose we examine the compound CN(CC(=O)N(Cc1ccc(C(F)(F)F)cc1)c1ccc(C(=O)O)c(O)c1)S(=O)(=O)c1c(F)c(F)c(F)c(F)c1F [Compound 14] ; what pIC50 value has been reported?
4.41

====

Record form. Attribute: IC50. Fill in for each entry.
Tested on: prostate carcinoma DU-145
Experiment: Resazurin cytotoxicity assay, DU-145
Settings: Homo sapiens, DU-145, read-out: IC50±SD DU-145

Suppose we examine the compound `CN(CC(=O)N(Cc1ccccc1)c1ccc(C(=O)O)c(O)c1)S(=O)(=O)c1c(F)c(F)c(F)c(F)c1F` ; what IC50 value has been reported?
> 50 µM

Suppose we examine the compound `CN(CC(=O)N(Cc1ccc(C(C)(C)C)cc1)c1ccc(C(=O)O)c(O)c1)S(=O)(=O)c1c(F)c(F)c(F)c(F)c1F` ; what IC50 value has been reported?
34 µM

Suppose we examine the compound `CN(CC(=O)N(Cc1ccc(C(F)(F)F)cc1)c1ccc(C(=O)O)c(O)c1)S(=O)(=O)c1c(F)c(F)c(F)c(F)c1F` ; what IC50 value has been reported?
65.3 µM

Suppose we examine the compound CN(CC(=O)N(Cc1ccc(C2CCCCC2)cc1)c1ccc(C(=O)O)c(O)c1)S(=O)(=O)c1c(F)c(F)c(F)c(F)c1F [BP-1-102 (1), reference compound] ; what IC50 value has been reported?
18 µM
